B1: ADAMTS4 (parent)
chain: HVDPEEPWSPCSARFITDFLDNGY

Variants of: B1
Test: protein stability index of a GFP-peptide fusion (GPS, HEK-293T) (PSI 1-6); higher = more stable;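 further: lentivirally expressed fusions sorted by FACS into six bins by GFP to DsRed ratio, PSI derived from sequencing read proportions per bin multiplied by bin number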
Settings: c terminus: a fixed tail appended
protein stability index below 2 gives False; protein stability index at or above it gives True.

{"mutant": "F15I", "category": "False"}
{"mutant": "H1L", "category": "False"}
{"mutant": "F15T", "category": "False"}
{"mutant": "W8N", "category": "True"}
{"mutant": "D21A", "category": "False"}
{"mutant": "A13M", "category": "True"}
{"mutant": "D21K", "category": "False"}
{"mutant": "D3E", "category": "False"}
{"mutant": "D3W", "category": "False"}
